- system under test: recombinant human DPPI (Cathepsin C) (Homo sapiens (Human))
- Sequence (P53634 231-394): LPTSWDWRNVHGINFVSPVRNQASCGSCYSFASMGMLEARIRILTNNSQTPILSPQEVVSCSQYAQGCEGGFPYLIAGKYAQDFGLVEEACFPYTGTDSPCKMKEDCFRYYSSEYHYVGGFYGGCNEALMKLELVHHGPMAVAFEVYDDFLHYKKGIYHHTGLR
- Sequence (P53634 395-463): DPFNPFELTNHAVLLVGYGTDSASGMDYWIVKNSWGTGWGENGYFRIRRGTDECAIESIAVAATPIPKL
- Sequence (P53634 25-134): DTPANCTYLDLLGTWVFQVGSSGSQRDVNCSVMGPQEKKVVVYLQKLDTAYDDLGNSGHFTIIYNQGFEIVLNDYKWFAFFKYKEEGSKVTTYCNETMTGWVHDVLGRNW
- assay text: Inhibition of human DPPI (Cathepsin C)
- condition parameters: substrate Gly-Arg-AMC
Recorded pIC50 values for a group of compounds are listed next.
Scale: pIC50 equals -log10([C]), with [C] in mol/L.

CN1CCO[C@@H]2CCN(c3ccc(C[C@@H](C#N)NC(=O)[C@H]4N[C@@H]5CC[C@H]4C5)c(F)c3)C[C@@H]21    7.70
N#C[C@H](Cc1ccc(-c2ccc(C(=O)N3CCN4CCOCC4C3)o2)cc1F)NC(=O)[C@H]1N[C@@H]2CC[C@H]1C2 (stereo partly drawn)    7.84
N#Cc1ccc(-c2ccc(C[C@@H](C#N)NC(=O)[C@H]3N[C@@H]4CC[C@H]3C4)c(F)c2)o1    8.70
CN1C(=O)C(=O)c2ccc(-c3ccc(C[C@@H](C#N)NC(=O)[C@H]4N[C@@H]5CC[C@H]4C5)c(F)c3)cc21    8.82
N#Cc1cc2c(cc1C(F)(F)F)[nH]c(=O)c1cc(CC(C#N)NC(=O)[C@H]3N[C@@H]4CC[C@H]3C4)ccc12 (stereo partly drawn)    8.33
N#Cc1ccc(-c2ccc(C[C@@H](C#N)NC(=O)[C@H]3N[C@H]4C[C@@H]3[C@@H]3C[C@@H]34)c(F)c2)cn1    7.20
N#C[C@H](Cc1ccc(-c2ccc(C(N)=O)o2)cc1F)NC(=O)[C@H]1N[C@@H]2CC[C@H]1C2    8.47
N#C[C@H](Cc1ccc(-c2cccs2)cc1F)NC(=O)[C@H]1N[C@@H]2CC[C@H]1C2    8.33
COc1ncc(-c2cn(-c3ccc(C[C@@H](C#N)NC(=O)[C@H]4N[C@@H]5CC[C@H]4C5)c(F)c3)nn2)cn1    8.03
CN1C(=O)Cc2ccc(-c3ccc(CC(C#N)NC(=O)[C@H]4N[C@@H]5CC[C@H]4C5)c(OCc4ccccc4)c3)cc21 (stereo partly drawn)    6.74

Moving on to the next compound.
Quick note, pIC50 for CN1CC2(C1)CN(c1ccc(C[C@@H](C#N)NC(=O)[C@H]3N[C@@H]4CC[C@H]3C4)c(F)c1)C2 landed at 8.11

FYI, the data here is from patent US8987249B2.
